# test_protocol: Cmax in Wistar Han rat at 3 mg/kg, po via gavage
# Format: ADME, organism-based
# Parameters: dose 3 mg/kg, route oral
# measurement_context: in vivo
experimental_endpoint: Cmax

Q: Give the reported value of Cmax for this record: Cc1cc(C)n(-c2cccc([C@H](CC(=O)O)CN3CC[C@@H](CCc4ccc5c(n4)NCCC5)C3)c2)n1 [GSK-3008348 FREE BASE]
Result: 3 to 9 ng/mL

* * *

# test_protocol: Protein binding in rat liver at 1 ug/ml after 4 hrs by rapid equilibrium dialysis and LC-MS/MS analysis
# Assay type: ADME, tissue-based
# measurement_context: at 1 µg/mL, read-out: PB (converted)
experimental_endpoint: fraction unbound at 4 h, 1 ug/ml
Answer with a number only.

Q: Supply recorded fraction unbound at 4 h, 1 ug/ml for Cc1cc(C)n(-c2cccc([C@H](CC(=O)O)CN3CC[C@@H](CCc4ccc5c(n4)NCCC5)C3)c2)n1 [GSK-3008348 FREE BASE] here.
Result: 0.085

* * *

# test_protocol: Protein binding in mouse lung at 1 ug/ml after 4 hrs by rapid equilibrium dialysis and LC-MS/MS analysis
# Assay type: ADME, tissue-based
# measurement_context: at 1 µg/mL, read-out: PB (converted)
experimental_endpoint: fraction unbound at 4 h, 1 ug/ml
Provide a numeric answer; units are not to be included.

Q: Annotate the compound Cc1cc(C)n(-c2cccc([C@H](CC(=O)O)CN3CC[C@@H](CCc4ccc5c(n4)NCCC5)C3)c2)n1 [GSK-3008348 FREE BASE] with its measured fraction unbound at 4 h, 1 ug/ml.
Result: 0.1

* * *

# test_protocol: Bioavailability in Wistar Han rat at 1 mg/kg, it measured after 12 hrs post dose
# Assay type: ADME, organism-based
# measurement_context: in vivo, inhaled or intranasal
experimental_endpoint: bioavailability (%)
Value expressed in %; do not type the unit.

Q: Give recorded bioavailability. Cc1cc(C)n(-c2cccc([C@H](CC(=O)O)CN3CC[C@@H](CCc4ccc5c(n4)NCCC5)C3)c2)n1 [GSK-3008348 FREE BASE]
Result: 21

* * *

Attribute: fraction unbound at 4 h, 1 ug/ml
# test_protocol: Protein binding in human blood at 1 ug/ml after 4 hrs by LC-MS/MS analysis
# Assay type: ADME, tissue-based
# measurement_context: at 1 µg/mL, read-out: PB (converted)
Hey, just send me the number, nothing else.

Please review the following examples before continuing.
compound: Cc1nc(C)c(-c2cccc([C@H](CC(=O)O)CN3CC[C@@H](CCc4ccc5c(n4)NCCC5)C3)c2)[nH]1
fraction unbound at 4 h, 1 ug/ml: 0.53
--
compound: Cc1ccnn1-c1cccc([C@H](CC(=O)O)CN2CC[C@@H](CCc3ccc4c(n3)NCCC4)C2)c1
fraction unbound at 4 h, 1 ug/ml: 0.1
--
compound: O=C(O)C[C@H](CN1CC[C@@H](CCc2ccc3c(n2)NCCC3)C1)c1cccc(-n2ccnn2)c1
fraction unbound at 4 h, 1 ug/ml: 0.28

Q: Using known records, supply fraction unbound at 4 h, 1 ug/ml for Cc1cc(C)n(-c2cccc([C@H](CC(=O)O)CN3CC[C@@H](CCc4ccc5c(n4)NCCC5)C3)c2)n1 [GSK-3008348 FREE BASE]
Result: 0.08

Q: Give fraction unbound at 4 h, 1 ug/ml for O=C(O)C[C@H](CN1CC[C@@H](CCc2ccc3c(n2)NCCC3)C1)c1cccc(-n2cncn2)c1
Result: 0.4

Q: Give the measured fraction unbound at 4 h, 1 ug/ml for O=C(O)C[C@H](CN1CC[C@@H](CCc2ccc3c(n2)NCCC3)C1)c1cccc(-n2cnnc2)c1
Result: 0.46

Q: Report fraction unbound at 4 h, 1 ug/ml for O=C(O)C[C@H](CN1CC[C@@H](CCc2ccc3c(n2)NCCC3)C1)c1cccc(C2CCOC2)c1 (stereo in doubt; 28xI2)
Result: 0.17

Where do the numbers come from? From ChEMBL document CHEMBL4229566.
